- studyTarget: T1, GLP-1R (INS1e assay) (UniProt P32301 22-463, limits assumed)
- T1 sequence (looked up): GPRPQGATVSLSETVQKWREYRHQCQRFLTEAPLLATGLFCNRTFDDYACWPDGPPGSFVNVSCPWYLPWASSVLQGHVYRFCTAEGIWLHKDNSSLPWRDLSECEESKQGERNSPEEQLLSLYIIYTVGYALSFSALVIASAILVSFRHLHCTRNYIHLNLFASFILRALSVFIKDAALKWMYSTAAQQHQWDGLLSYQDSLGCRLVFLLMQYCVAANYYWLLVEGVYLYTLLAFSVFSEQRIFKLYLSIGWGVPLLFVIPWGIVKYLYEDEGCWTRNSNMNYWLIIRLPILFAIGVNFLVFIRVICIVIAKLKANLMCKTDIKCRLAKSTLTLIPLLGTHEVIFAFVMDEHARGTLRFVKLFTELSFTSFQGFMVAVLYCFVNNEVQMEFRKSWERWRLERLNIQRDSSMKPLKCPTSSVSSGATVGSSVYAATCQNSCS
- assayProcedure: cell-based or functional assay
Starred links: 1 amine or outer side, 2 acyl side, 3 side chain; linkers in the order of their positions; H or OH if unused. Non-standard residues stand in square brackets, D forms with d. Groups on a side chain read outwards from the residue. Primed or numbered codes have the meaning given here. No end group written: not given here. *: point of attachment. Dodecylbenzoate = dodecylbenzoyl lipid group; γGlu = O=C(O)[C@H](CCC(=O)[*:2])N[*:1]; Stearoyl = CCCCCCCCCCCCCCCCCC(=O)*; αMeF = C[C@](N)(Cc1ccccc1)C(=O)O; αMeK = C[C@](N)(CCCCN)C(=O)O; αMeS = C[C@](N)(CO)C(=O)O; PEG2′ = not defined here; Aib = CC(C)(N)C(=O)O
property: INS1e assay EC50 Mean pM GLP-1R (pM)

1. H[Aib]EGS[αMeF]TSDV[αMeS]S[αMeF]LEGEAAK([PEG2′-PEG2′-PEG2′-Stearoyl])E[αMeF]IA[αMeF]VV[αMeK]GG-NH2 [SEQ ID NO 154] : 25
2. H[Aib]EGS[αMeF]TSDV[αMeS]S[αMeF]LEGEAA[αMeK]E[αMeF]IA[αMeF]VVK([PEG2′-Dodecylbenzoate])GG-NH2 [SEQ ID NO 179] : 340

A = H[Aib]EGS[αMeF]TSDV[αMeS]S[αMeF]LEGEAAK([PEG2′-PEG2′-γGlu-Stearoyl])E[αMeF]IA[αMeF]VVKGG-NH2 [SEQ ID NO 50]
B = H[Aib]EGS[αMeF]TSDV[αMeS]S[αMeF]LEGEAAK([PEG2′-PEG2′-Stearoyl])E[αMeF]IA[αMeF]VV[αMeK]GG-NH2 [SEQ ID NO 153]
query: When A and B are compared, which has the higher number for INS1e assay EC50 Mean pM GLP-1R? Label of pick, please.
result: A
(A: 32400 pM, B: 58 pM)
